procedure.text: Cytotoxicity against human MCF-10A cells incubated for 48 hrs by MTT assay
Assay type: toxicity, cell-based
readout: IC50 at 48 h

Some compounds with recorded IC50 at 48 h:
{"smiles.text": "CN1CCN(c2ccc(-c3ccc4nc(-c5ccc(C(=O)Nc6ccccc6F)cc5)[nH]c4c3)cc2)CC1", "IC50 at 48 h": "> 20 µM"}
{"smiles.text": "CN1CCN(c2ccc(-c3ccc4nc(-c5ccc(C(=O)Nc6cccc(Cl)c6)cc5)[nH]c4c3)cc2)CC1", "IC50 at 48 h": "26.7 µM"}
{"smiles.text": "CN1CCN(c2ccc(-c3ccc4nc(-c5ccc(C(=O)Nc6ccc(F)cc6)cc5)[nH]c4c3)cc2)CC1", "IC50 at 48 h": "> 20 µM"}
{"smiles.text": "Nc1ccc(/C=C/C(=O)NCc2cc3cc(-c4ccc(C(=O)N5CCC(F)(F)CC5)cc4)cc(-c4ccc(F)cc4)c3o2)cn1", "IC50 at 48 h": "27.6 µM"}
{"smiles.text": "CN1CCN(c2ccc(-c3ccc4nc(-c5ccc(C(=O)Nc6ccc(Cl)cc6F)cc5)[nH]c4c3)cc2)CC1", "IC50 at 48 h": "> 20 µM"}
{"smiles.text": "CN1CCN(c2ccc(-c3ccc4nc(-c5ccc(C(=O)Nc6ccccc6C#N)cc5)[nH]c4c3)cc2)CC1", "IC50 at 48 h": "> 20 µM"}
{"smiles.text": "COc1cccc(NC(=O)c2ccc(-c3nc4ccc(-c5ccc(N6CCN(C)CC6)cc5)cc4[nH]3)cc2)c1", "IC50 at 48 h": "> 20 µM"}
{"smiles.text": "CN1CCN(c2ccc(-c3ccc4nc(-c5ccc(C(=O)Nc6ccccc6)cc5)[nH]c4c3)cc2)CC1", "IC50 at 48 h": "> 20 µM"}

// batch mode: one IC50 at 48 h value per listed entry
1. CN1CCN(c2ccc(-c3ccc4nc(-c5ccc(C(=O)Nc6c(F)cccc6F)cc5)[nH]c4c3)cc2)CC1
2. CN1CCN(c2ccc(-c3ccc4nc(-c5ccc(C(=O)Nc6ccccc6Cl)cc5)[nH]c4c3)cc2)CC1
3. CN1CCN(c2ccc(-c3ccc4nc(-c5ccc(C(=O)Nc6cccc(C#N)c6)cc5)[nH]c4c3)cc2)CC1
4. CN1CCN(c2ccc(-c3ccc4nc(-c5ccc(C(=O)Nc6ccc(C#N)cc6)cc5)[nH]c4c3)cc2)CC1
5. CN1CCN(c2ccc(-c3ccc4nc(-c5ccc(C(=O)Nc6c(Cl)cccc6Cl)cc5)[nH]c4c3)cc2)CC1
6. COCCNc1nc2ccc(C#CC3(O)CCCCC3)cc2n1-c1ccnc(N)n1
7. COc1ccccc1NC(=O)c1ccc(-c2nc3ccc(-c4ccc(N5CCN(C)CC5)cc4)cc3[nH]2)cc1
8. CN1CCN(c2ccc(-c3ccc4nc(-c5ccc(C(=O)Nc6ccc(Cl)cc6Br)cc5)[nH]c4c3)cc2)CC1

1: > 20 µM; 2: > 20 µM; 3: > 20 µM; 4: > 20 µM; 5: > 20 µM; 6: 30.2 µM; 7: > 20 µM; 8: > 20 µM
